# Test system: MDA-MB-468
# Method: drug sensitivity score (DSS), CellTiter-Blue viability (DSS (AUC-based score)); higher = stronger viability inhibition; extreme values may be limits of the assay
# Condition summary: incubation time: 72 h
A collection of molecules and their measured drug sensitivity score
Form: value (number only, do not type unit).

The reported drug sensitivity score value, MDA-MB-468, for COC1=C2C[C@@H](C)C[C@H](OC)[C@H](O)[C@@H](C)/C=C(\C)[C@H](OC(N)=O)[C@@H](OC)/C=C\C=C(/C)C(=O)NC(=CC1=O)C2=O [Geldanamycin] reads 24.1

----------
# System: CAL-148
# Method: normalised viability (% of control), CellTiter-Blue; higher = more viable cells (about 100 = DMSO control)
# Condition summary: 3 nM; incubation time: 72 h
Simple rule here: normalised viability less than 90% is True, otherwise False.

Worked set:
O=P(O)(NCCCl)NCCCl [Ifosfamide mustard] | False
CC(C)(C)c1cc(NC(=O)Nc2ccc(-c3cn4c(n3)sc3cc(OCCN5CCOCC5)ccc34)cc2)no1 | False
COc1cc(Nc2ncc(F)c(Nc3ccc4c(n3)NC(=O)C(C)(C)O4)n2)cc(OC)c1OC | False
COc1c(C)cnc(Cn2cnc3c(Cl)nc(N)nc32)c1C | True
COc1cccc2c1C(=O)c1c(O)c3c(c(O)c1C2=O)C[C@@](O)(C(C)=O)C[C@@H]3O[C@H]1C[C@H](N)[C@H](O)[C@H](C)O1 | False

Does the reported normalised viability of the following compound sit strictly below 90%? COC1=CC(c2cc3ccccc3[nH]2)=N/C1=C\c1[nH]c(C)cc1C True

Threshold test, normalised viability < 90%: CCOc1cc2ncc(C#N)c(Nc3ccc(OCc4ccccn4)c(Cl)c3)c2cc1NC(=O)/C=C/CN(C)C True

----------
# Lookup of reported normalised response keyed by entry
# Test system: CAL-51
# Method: normalised response (% of control), CellTiter-Glo; higher = more viable cells (100 = DMSO, 0 = benzethonium chloride kill control)
# Condition summary: incubation time: 72 h
Numbers only here, please. The scale is %.

COC1=C2C[C@@H](C)C[C@H](OC)[C@H](O)[C@@H](C)/C=C(\C)[C@H](OC(N)=O)[C@@H](OC)/C=C\C=C(/C)C(=O)NC(=CC1=O)C2=O [Geldanamycin] (100 nM) | 84.7
COc1ccc(C2=N[C@@H](c3ccc(Cl)cc3)[C@@H](c3ccc(Cl)cc3)N2C(=O)N2CCNC(=O)C2)c(OC(C)C)c1 [Nutlin-3] (100 nM) | 64
C[C@@]1(C(=O)Nc2ccc(F)nc2)CCCN1c1nc(Nc2cc(C3CC3)n[nH]2)c2cccn2n1 (100 nM) | 106
CC(=O)O[C@H]1C(=O)[C@@]2(C)[C@H]([C@H](OC(=O)c3ccccc3)[C@]3(O)C[C@H](OC(=O)[C@H](O)[C@@H](NC(=O)c4ccccc4)c4ccccc4)C(C)=C1C3(C)C)[C@]1(OC(C)=O)CO[C@@H]1C[C@@H]2O [Paclitaxel] (10 nM) | 52.7
COC1=CC(c2cc3ccccc3[nH]2)=N/C1=C\c1[nH]c(C)cc1C [Obatoclax] (100 nM) | 87.8

Given the compound CS(=O)(=O)OCCCCOS(C)(=O)=O [Busulfan] (1000 nM) and test system CAL-51, the measured normalised response is 90.4

----------
In this section we review reported drug sensitivity score values for a set of molecules.
# Tested on: MDA-MB-453
# Method: drug sensitivity score (DSS), CellTox Green (DSS (AUC-based score)); higher = stronger drug effect (viability inhibition or cytotoxicity); extreme values may be limits of the assay
# Condition summary: incubation time: 72 h
Lab note: write the figure by itself, no unit.

C[C@@]1(C(=O)Nc2ccc(F)nc2)CCCN1c1nc(Nc2cc(C3CC3)n[nH]2)c2cccn2n1 | 0
COc1cc(Nc2ncc(F)c(Nc3ccc4c(n3)NC(=O)C(C)(C)O4)n2)cc(OC)c1OC | 0
O=c1[nH]cc(F)c(=O)[nH]1 | 0
C#Cc1cccc(Nc2ncnc3cc(OC)c(OCCCCCCC(=O)NO)cc23)c1 | 4.37
COC1=CC(c2cc3ccccc3[nH]2)=N/C1=C\c1[nH]c(C)cc1C | 0
CS(=O)(=O)CCNCc1ccc(-c2ccc3ncnc(Nc4ccc(OCc5cccc(F)c5)c(Cl)c4)c3c2)o1 | 1.15
O=C(c1ccc(OCCN2CCCCC2)cc1)c1c(-c2ccc(O)cc2)sc2cc(O)ccc12 | 0
CCCC(CCC)C(=O)O | 0

Record C[C@@H]1CCN(C(=O)CC#N)C[C@@H]1N(C)c1ncnc2[nH]ccc12 , field drug sensitivity score: 0

// field: drug sensitivity score; key: CC(=O)O[C@H]1C(=O)[C@@]2(C)[C@H]([C@H](OC(=O)c3ccccc3)[C@]3(O)C[C@H](OC(=O)[C@H](O)[C@@H](NC(=O)c4ccccc4)c4ccccc4)C(C)=C1C3(C)C)[C@]1(OC(C)=O)CO[C@@H]1C[C@@H]2O ; value = 0

----------
# System: Hs578T
# Method: drug sensitivity score (DSS), CellTiter-Glo (DSS (AUC-based score)); higher = stronger drug effect (viability inhibition or cytotoxicity); extreme values may be limits of the assay
# Condition summary: incubation time: 72 h
Property label: drug sensitivity score
Please reply with the value in numeric form only.

Some solved cases for reference:
CC(=O)O[C@H]1C(=O)[C@@]2(C)[C@H]([C@H](OC(=O)c3ccccc3)[C@]3(O)C[C@H](OC(=O)[C@H](O)[C@@H](NC(=O)c4ccccc4)c4ccccc4)C(C)=C1C3(C)C)[C@]1(OC(C)=O)CO[C@@H]1C[C@@H]2O | 23.7
CCS(=O)(=O)c1cccc(-c2cc(C(=O)NC3CCN(C)CC3)c(C)c3[nH]c4ncc(C)cc4c23)c1 | 1.14
COc1ncc(-c2ccc3nccc(-c4ccnnc4)c3c2)cc1NS(=O)(=O)c1ccc(F)cc1F | 14
COc1cccc2c1C(=O)c1c(O)c3c(c(O)c1C2=O)C[C@@](O)(C(C)=O)C[C@@H]3O[C@H]1C[C@H](N)[C@H](O)[C@H](C)O1 | 4.81
CC(C)(C)c1cc(NC(=O)Nc2ccc(-c3cn4c(n3)sc3cc(OCCN5CCOCC5)ccc34)cc2)no1 | 0

# context switch: different compound, same drug sensitivity score
The compound Cc1cc(C(C)Nc2ccccc2)c2nc(N3CCOCC3)cc(=O)n2c1 (stereo unspecified) on Hs578T: drug sensitivity score was 0

----------
# Tested on: BT-474
# Method: normalised viability (% of control), CellTiter-Blue; higher = more viable cells (about 100 = DMSO control)
# Condition summary: 1000 nM; incubation time: 72 h
Classify: satisfied when normalised viability is strictly less than 40%; not satisfied when normalised viability is not.

COC1=CC(c2cc3ccccc3[nH]2)=N/C1=C\c1[nH]c(C)cc1C [Obatoclax] | satisfied
CCCC(CCC)C(=O)O [Valproic acid] | not satisfied
O=P(O)(NCCCl)NCCCl [Ifosfamide mustard] | not satisfied

Please let me know if COc1cccc2c1C(=O)c1c(O)c3c(c(O)c1C2=O)C[C@@](O)(C(C)=O)C[C@@H]3O[C@H]1C[C@H](N)[C@H](O)[C@H](C)O1 [Daunorubicin] shows normalised viability below 40%. satisfied

# strict comparison: is reported normalised viability < 40%? input = COc1c(C)cnc(Cn2cnc3c(Cl)nc(N)nc32)c1C [BIIB021] satisfied

normalised viability under 40%? Item: C#Cc1cccc(Nc2ncnc3cc(OC)c(OCCCCCCC(=O)NO)cc23)c1 [CUDC-101] satisfied

----------
# Test system: HDQ-P1
# Method: normalised viability (% of control), CellTiter-Blue; higher = more viable cells (about 100 = DMSO control)
# Condition summary: incubation time: 72 h
In this section we review reported normalised viability values for a set of molecules.
Supply the numeric figure in %, leaving out any unit text.

Worked cases, answers included:
CC(=O)O[C@H]1C(=O)[C@@]2(C)[C@H]([C@H](OC(=O)c3ccccc3)[C@]3(O)C[C@H](OC(=O)[C@H](O)[C@@H](NC(=O)c4ccccc4)c4ccccc4)C(C)=C1C3(C)C)[C@]1(OC(C)=O)CO[C@@H]1C[C@@H]2O [Paclitaxel] (30 nM) | 33.7
Cn1c(=O)c(F)c(Nc2ccc(I)cc2F)c2c(=O)n(C[C@@H](O)CO)cnc21 [TAK-733] (30 nM) | 77.7

Now consider the entry below.
The reported value for COC1=CC(c2cc3ccccc3[nH]2)=N/C1=C\c1[nH]c(C)cc1C [Obatoclax] (300 nM) in terms of normalised viability is 40.7

----------
# Tested on: HCC1143
# Method: normalised viability (% of control), CellTiter-Blue; higher = more viable cells (about 100 = DMSO control)
# Condition summary: 1000 nM; incubation time: 72 h
The compounds listed here are annotated with their normalised viability.
Kindly answer with a numeric value in %, unit omitted.

Reference set, count: 3
CCCC(CCC)C(=O)O | 104
CCOc1cc2ncc(C#N)c(Nc3ccc(OCc4ccccn4)c(Cl)c3)c2cc1NC(=O)/C=C/CN(C)C | 84.5
C#Cc1cccc(Nc2ncnc3cc(OC)c(OCCCCCCC(=O)NO)cc23)c1 | 32.8

The reported normalised viability of the compound COc1cccc2c1C(=O)c1c(O)c3c(c(O)c1C2=O)C[C@@](O)(C(C)=O)C[C@@H]3O[C@H]1C[C@H](N)[C@H](O)[C@H](C)O1 was 32

Form field normalised viability, entry CC(C)C[C@H](NC(=O)[C@H](Cc1ccccc1)NC(=O)c1cnccn1)B(O)O : 17.4
